# test-summary: protein stability index of a GFP-peptide fusion (yeast GPS) (PSI 1-4); higher = more stable; sorted into four equal gates, so the index is relative within each strain
# condition-summary: doa10∆
assay-readout: protein stability index
Respond numerically, and do not add a unit to the figure.

Some sequences with recorded protein stability index:
seq	protein stability index
LVLLELVSSGDRFIELI [YML103C/NUP188]	2.56
KSMASAFGVSVAFLDND [RPN7]	3.04
AIKDKLEQDLHFENAKV [YIL149C/MLP2]	3.09
SLNTKKNEKLILEESLN [SMC3]	2.18
NRVGLTLDNIDDINKAK [ARP9]	3.15

// next entry
I have this sequence here, VKARHGGCDYIFSLLTG [CYT1] , and I need its recorded protein stability index.
2.88

====

# test-summary: protein stability index of a GFP-peptide fusion (yeast GPS) (PSI 1-4); higher = more stable; sorted into four equal gates, so the index is relative within each strain
# condition-summary: ubr1∆
assay-readout: protein stability index
Respond numerically, and do not add a unit to the figure.

Some sequences with recorded protein stability index:
seq	protein stability index
KRPTPPSFTFGGSTTNN [YOR098C/NUP1]	2.9
LTHVDLIEKFLRYNPLE [RPB10]	3.12
QVLMDINTLNGGSSDTA [GAL11]	3.1
PTDDKTLKPTFSFTEPA [YOR098C/NUP1]	3.07
VAFLDNDLGKFIPNKQL [RPN7]	2.88

// next entry
I have this sequence here, VDDDQDYVVAPGVNREI [GRR1] , and I need its recorded protein stability index.
3.29

====

# test-summary: protein stability index of a GFP-peptide fusion (yeast GPS) (PSI 1-4); higher = more stable; sorted into four equal gates, so the index is relative within each strain
# condition-summary: san1∆
Property: protein stability index; scope: individual sequences
Respond numerically, and do not add a unit to the figure.

Some sequences with recorded protein stability index:
seq	recorded-result
LTADARSMIEHARTAAV [PUP2]	2.38
IDLDHKRFLILQGEVEN [SMC4]	1.81

I have this sequence here, KHAEFDLSLLGYCDDIA [SIR2] , and I need its recorded protein stability index.
2.99

I have this sequence here, EDNKYAIAGNSTTNSDV [RGR1] , and I need its recorded protein stability index.
2.99

I have this sequence here, DIFVYLTYDKDLTNNPQ [MTR3] , and I need its recorded protein stability index.
2.35

I have this sequence here, EIPEGVTVSIKSRIVKV [RPL9B] , and I need its recorded protein stability index.
1.44

====

# test-summary: protein stability index of a GFP-peptide fusion (yeast GPS) (PSI 1-4); higher = more stable; sorted into four equal gates, so the index is relative within each strain
# condition-summary: doa10∆
assay-readout: protein stability index

Some sequences with recorded protein stability index:
seq	protein stability index
TEPDKPAFSFNSSVGNK [YJL041W/NSP1]	3.14
GKIVSQRGKWNLKYLDN [RGR1]	2.28
LSNPSNQNICTSVTRRS [GRR1]	2.42
MAPLSLNFKDDKKYKGL [REC8]	2.66
ALGMMTRISSQFEKSRK [RET1]	1.39
NDELVELLANKCPLLVE [GRR1]	2.08
FTVDKKIAERSLLLKNY [SKP1]	3.44
RFVIWTEAAFTKLDQVW [RPL4A]	3.18

// next entry
I have this sequence here, KVKKPLKYLSVEEVIKL [PRE7] , and I need its recorded protein stability index.
2.54

====

# test-summary: protein stability index of a GFP-peptide fusion (yeast GPS) (PSI 1-4); higher = more stable; sorted into four equal gates, so the index is relative within each strain
# condition-summary: pdr5∆
assay-readout: protein stability index
Respond numerically, and do not add a unit to the figure.

Some sequences with recorded protein stability index:
seq	assay-readout	recorded-result
TNEFVGSPSLTSPQYIP [NUT1]	protein stability index	3.04
YVKEKLEAVNSMIEKGG [RPN7]	protein stability index	2.98
VHESLVTQSNILSQQFD [SRB8]	protein stability index	3.09
VSLEERTKNLVSKMEKA [SMC4]	protein stability index	2.95
EESIRESLQKRELLKSQ [SIR3]	protein stability index	3.32

I have this sequence here, VKNTNANPVVATDPVAA [SWP82] , and I need its recorded protein stability index.
2.91

I have this sequence here, LQWHAMIELICSSATVP [AAR2] , and I need its recorded protein stability index.
1.69

I have this sequence here, EQKKTATEVTPQEPKHI [RPC19] , and I need its recorded protein stability index.
3.02

I have this sequence here, EQTCVKLLDSGCENPAD [SRP72] , and I need its recorded protein stability index.
3.4

====

# test-summary: protein stability index of a GFP-peptide fusion (yeast GPS) (PSI 1-4); higher = more stable; sorted into four equal gates, so the index is relative within each strain
# condition-summary: ubr1∆
assay-readout: protein stability index
Respond numerically, and do not add a unit to the figure.

seq	protein stability index
ELSDNEENFEATRTLVA [YCG1]	3.04
DITGDIRNEGSDAEEEE [ISW2]	2.91
RVKDPQWLIMLGICTHL [RIP1]	2.91

I have this sequence here, RSTDVWYEASTWIQQFK [ARP7] , and I need its recorded protein stability index.
2.97

I have this sequence here, TYDENDDFFKELAKEAK [ESC2] , and I need its recorded protein stability index.
3.08

====

Property: protein stability index; scope: individual sequences
# test-summary: protein stability index of a GFP-peptide fusion (yeast GPS) (PSI 1-4); higher = more stable; sorted into four equal gates, so the index is relative within each strain
# condition-summary: pdr5∆
Respond numerically, and do not add a unit to the figure.

Some sequences with recorded protein stability index:
seq	protein stability index
ANIFRIHSKSMSVERGI [RPT1]	3.01
TELKKKLDDLENTKDNL [SMC1]	2.94

I have this sequence here, LHPYVPSSKPQEQVYPD [SRB8] , and I need its recorded protein stability index.
2.92

I have this sequence here, DYCRILSDIETAVNGID [YGL172W/NUP49] , and I need its recorded protein stability index.
3.15

I have this sequence here, YPIYELLMSCPRLSHLS [GRR1] , and I need its recorded protein stability index.
1.4

I have this sequence here, LASEVGDPALVYKFMSL [ECM29] , and I need its recorded protein stability index.
2.4

I have this sequence here, HVNKRKRVSGTSQHSDS [YOR098C/NUP1] , and I need its recorded protein stability index.
2.31

I have this sequence here, ISALTQTEIKDIILGQN [PRP8] , and I need its recorded protein stability index.
2.51

I have this sequence here, RLYVKGKHLSYQRSKRV [RPL33A] , and I need its recorded protein stability index.
1.75

I have this sequence here, SMNATMRNFSKQNQDSK [YDL088C/ASM4] , and I need its recorded protein stability index.
2.99

====

# test-summary: protein stability index of a GFP-peptide fusion (yeast GPS) (PSI 1-4); higher = more stable; sorted into four equal gates, so the index is relative within each strain
# condition-summary: doa10∆
assay-readout: protein stability index
Respond numerically, and do not add a unit to the figure.

seq	protein stability index
FSKFERSKSSHKNERRV [SKI6]	3.16
LHVVSKSSIEKDPSPEI [SIN4]	2.91
QLFSTFDRLNGNDTISK [SSN2]	3.03

// next entry
I have this sequence here, IMNVLSEGFEPTFSTHA [PRP8] , and I need its recorded protein stability index.
2.86

====

# test-summary: protein stability index of a GFP-peptide fusion (yeast GPS) (PSI 1-4); higher = more stable; sorted into four equal gates, so the index is relative within each strain
# condition-summary: doa10∆
Tag: yes if measured protein stability index is not below 3, no if it is.

Use the examples below as a reference point.
seq	label-value
TLTASPDGTLIASAGKD [ASC1]	no
SWYLNTFDGIRMSSEEV [GRR1]	no
KAFTNWNKRDFMAFINA [ISW2]	no
GDYGSAKCNSLLQLKYF [POP5]	no
PSILEDSLENNEGVPSP [FAS1]	yes

Identify whether the reported protein stability index of the following sequence is 3 or greater: QKKVLIDGPKAGVPRQA [RPL14A]
yes

Identify whether the reported protein stability index of the following sequence is 3 or greater: QQLRRALPDVVVKGLPD [RPO31]
no

====

# test-summary: protein stability index of a GFP-peptide fusion (yeast GPS) (PSI 1-4); higher = more stable; sorted into four equal gates, so the index is relative within each strain
# condition-summary: ubr1∆
Tag: met if measured protein stability index is not below 3, not met if it is.

seq	label-value
LKEILNVAKNMKTPSLT [RPO21]	met
QQKQQQQQQQHQQQQQQ [SNF5]	not met

Please turn your attention to the following entry.
Identify whether the reported protein stability index of the following sequence is 3 or greater: PGTITHGMFSSASVRAL [FAS1]
not met

====

# test-summary: protein stability index of a GFP-peptide fusion (yeast GPS) (PSI 1-4); higher = more stable; sorted into four equal gates, so the index is relative within each strain
# condition-summary: pdr5∆
assay-readout: protein stability index
Respond numerically, and do not add a unit to the figure.

Some sequences with recorded protein stability index:
seq	recorded-result
IKLVKQNDELKFQGVLE [RPC34]	3.53
FSQEALQYVVERVGKRT [FAS1]	1.24
ADEMGLGKTIQTISLLT [SNF2]	2.5
PWYNNPVSCIIQNDEEY [PRP8]	2.05

I have this sequence here, FKHISVKDFTSLGFNEV [RPO21] , and I need its recorded protein stability index.
2.38

I have this sequence here, DPRNLVNQTGSTKKDTV [YCG1] , and I need its recorded protein stability index.
3.15

I have this sequence here, STSYHLNSTLESLYDLI [MED6] , and I need its recorded protein stability index.
2.62

I have this sequence here, SEVLVDTLDSKSNGSSD [ISW2] , and I need its recorded protein stability index.
3.15

I have this sequence here, LPLNKPRLEKLINEILL [RGR1] , and I need its recorded protein stability index.
2.33
